The entries below come with measured viability values attached.
assay: reducers of endogenous Her2 protein level, primary screen, SKBR3 breast tumor cells, AlphaScreen, ATP viability (AID 461); conditions: 18-24 h, measured here: SKBR3 viability, ATP luminescence, at 10 µM;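 also: percent of carrier control wells set as 100% viability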
Report the value in % with no unit label.

Record excerpt, results attached:
COMPOUND	NUMBER
COc1ccc(OC)c(S(=O)(=O)N2CCC(C(=O)NCC3CCCO3)CC2)c1 (stereo unspecified)	101
CCCc1nnc(SCC(=O)N2CCOCC2)n1Cc1ccco1	126
COc1ccc2nc3oc(C(=O)NC4CCN(Cc5ccccc5)CC4)cc3cc2c1	76.5
CCCCC(=O)NCCc1ccc(S(N)(=O)=O)cc1	104
Cn1c(=O)c2c([nH]c(=O)n2C)n(C)c1=O	104

Summary for this compound, CC1=C(C(=O)Nc2ccccc2)C(c2cccs2)C(C#N)=C(SCC#N)N1 (stereo unspecified) : viability is 104

Summary for this compound, CC1CCCCC1NC(=O)c1ccc(N2CCCC2=O)cc1 (stereo unspecified) : viability is 112

Summary for this compound, "Cc1ccc(S(=O)(=O)C2(C(=O)Nc3nccs3)CC2)cc1" : viability is 95

Summary for this compound, "Cc1nnc(SCC(=O)NCCN2C(=O)CSC2=O)s1" : viability is 96.5

Summary for this compound, Cc1ccccc1N(C)S(=O)(=O)c1ccc2[nH]cc(C(=O)NCC3CCCO3)c(=O)c2c1 (stereo unspecified) : viability is 83

Summary for this compound, COc1cc(C2C(C#N)=C(N)Oc3cc(N)ccc32)cc(OC)c1OC (stereo unspecified) : viability is 91.5
